Reported self-splicing fitness (ln) values for a set of sequences
- experimentSummary: self-splicing fitness, log relative to wild type (ln ratio); higher = more splicing; Tetrahymena group I intron in knt gene, E. coli kanamycin selection, DiMSum; sequences stand for … in CUCUCU…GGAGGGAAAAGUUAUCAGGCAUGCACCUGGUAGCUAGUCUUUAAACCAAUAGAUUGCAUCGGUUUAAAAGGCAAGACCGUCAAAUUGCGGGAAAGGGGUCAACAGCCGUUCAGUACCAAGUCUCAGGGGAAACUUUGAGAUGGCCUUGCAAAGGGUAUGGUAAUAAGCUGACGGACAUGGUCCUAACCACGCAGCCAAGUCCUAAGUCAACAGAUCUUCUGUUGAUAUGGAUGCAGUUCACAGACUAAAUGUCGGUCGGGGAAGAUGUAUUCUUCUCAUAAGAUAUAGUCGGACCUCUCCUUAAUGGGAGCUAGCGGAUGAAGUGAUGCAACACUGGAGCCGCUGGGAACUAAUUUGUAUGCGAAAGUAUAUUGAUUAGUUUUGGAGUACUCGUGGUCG;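 note: selection with 25 µg/mL kanamycin versus none on LB agar overnight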
- testContext: 30 °C
I'd appreciate a reply containing only the number, no unit.

The following sequences have reported results that may help.
Entry CGCCAGCAAUAUUACGGACA has what self-splicing fitness (ln)?
-0.882

Entry UAAGAGCAAUAUUACGUGGA has what self-splicing fitness (ln)?
-2.84

Entry AGGUAGCAAUAUUACGAAAU has what self-splicing fitness (ln)?
-2.05

Others:
Entry UAUCAGCAAUAUUACGAAGU has what self-splicing fitness (ln)?
-2.82

Entry UUGAAGCAAUAUUACGCGUA has what self-splicing fitness (ln)?
-0.169

Entry CCGUAGCAAUAUUACGGAAU has what self-splicing fitness (ln)?
-3.73

###

Reported self-splicing fitness (ln) values for a set of sequences
- experimentSummary: self-splicing fitness, log relative to wild type (ln ratio); higher = more splicing; Tetrahymena group I intron in knt gene, E. coli kanamycin selection, DiMSum; sequences stand for … in CUCUCU…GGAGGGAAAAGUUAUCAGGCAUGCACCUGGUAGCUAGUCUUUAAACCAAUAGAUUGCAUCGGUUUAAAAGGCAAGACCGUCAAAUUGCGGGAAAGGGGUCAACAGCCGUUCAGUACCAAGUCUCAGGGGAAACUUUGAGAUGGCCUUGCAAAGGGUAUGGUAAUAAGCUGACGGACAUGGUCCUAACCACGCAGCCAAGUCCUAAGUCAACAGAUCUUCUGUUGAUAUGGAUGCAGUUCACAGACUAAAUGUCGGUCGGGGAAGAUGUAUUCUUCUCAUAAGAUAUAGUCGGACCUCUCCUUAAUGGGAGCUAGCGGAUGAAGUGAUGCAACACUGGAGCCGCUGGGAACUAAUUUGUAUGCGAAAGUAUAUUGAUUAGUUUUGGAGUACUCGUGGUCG
- testContext: 37 °C
I'd appreciate a reply containing only the number, no unit.

The following sequences have reported results that may help.
Entry GAAAAGCAAUAUUACGACUU has what self-splicing fitness (ln)?
0.52

Entry GGACAGCAAUAUUACGCGAC has what self-splicing fitness (ln)?
-1.09

Entry CGAGAGCAAUAUUACGAAAA has what self-splicing fitness (ln)?
-2.18

Entry UUCAAGCAAUAUUACGAAUG has what self-splicing fitness (ln)?
-2.87

Entry GUUAAGCAAUAUUACGAUUG has what self-splicing fitness (ln)?
-1.63

Others:
Entry CCCGAGCAAUAUUACGUAGG has what self-splicing fitness (ln)?
-1.16

Entry UACUAGCAAUAUUACGCGUG has what self-splicing fitness (ln)?
-0.559

Entry CAAGAGCAAUAUUACGUCAA has what self-splicing fitness (ln)?
-2.73

###

- experimentSummary: self-splicing fitness, log relative to wild type (ln ratio); higher = more splicing; Tetrahymena group I intron in knt gene, E. coli kanamycin selection, DiMSum; sequences stand for … in CUCUCU…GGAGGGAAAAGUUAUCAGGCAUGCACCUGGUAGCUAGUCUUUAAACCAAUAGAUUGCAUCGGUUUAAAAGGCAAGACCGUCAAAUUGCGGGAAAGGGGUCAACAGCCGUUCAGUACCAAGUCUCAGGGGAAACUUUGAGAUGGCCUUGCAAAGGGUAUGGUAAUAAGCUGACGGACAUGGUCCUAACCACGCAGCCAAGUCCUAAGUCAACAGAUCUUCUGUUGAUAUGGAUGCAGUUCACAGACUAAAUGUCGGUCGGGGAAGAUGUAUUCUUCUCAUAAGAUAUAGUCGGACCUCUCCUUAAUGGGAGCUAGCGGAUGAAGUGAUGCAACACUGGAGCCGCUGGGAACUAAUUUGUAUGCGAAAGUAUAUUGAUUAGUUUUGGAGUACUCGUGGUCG
- testContext: 37 °C
Hi, to clarify the labels: t covers self-splicing fitness (ln) from -1 upward, f covers anything below -1.

Some solved cases for reference:
Form field: self-splicing fitness (ln) at least -1? Entry: CCAGAGCAAUAUUACGGAUG
f

Form field: self-splicing fitness (ln) at least -1? Entry: CGGAAGCAAUAUUACGAGUG
t

Form field: self-splicing fitness (ln) at least -1? Entry: CAAAAGCAAUAUUACGCUGA
f

Form field: self-splicing fitness (ln) at least -1? Entry: UUACAGCAAUAUUACGAUCC
f

Form field: self-splicing fitness (ln) at least -1? Entry: GAACAGCAAUAUUACGGGAC
f

Then this sequence:
Form field: self-splicing fitness (ln) at least -1? Entry: UCCCAGCAAUAUUACGUCAG
f

###

- experimentSummary: self-splicing fitness, log relative to wild type (ln ratio); higher = more splicing; Tetrahymena group I intron in knt gene, E. coli kanamycin selection, DiMSum; sequences stand for … in CUCUCU…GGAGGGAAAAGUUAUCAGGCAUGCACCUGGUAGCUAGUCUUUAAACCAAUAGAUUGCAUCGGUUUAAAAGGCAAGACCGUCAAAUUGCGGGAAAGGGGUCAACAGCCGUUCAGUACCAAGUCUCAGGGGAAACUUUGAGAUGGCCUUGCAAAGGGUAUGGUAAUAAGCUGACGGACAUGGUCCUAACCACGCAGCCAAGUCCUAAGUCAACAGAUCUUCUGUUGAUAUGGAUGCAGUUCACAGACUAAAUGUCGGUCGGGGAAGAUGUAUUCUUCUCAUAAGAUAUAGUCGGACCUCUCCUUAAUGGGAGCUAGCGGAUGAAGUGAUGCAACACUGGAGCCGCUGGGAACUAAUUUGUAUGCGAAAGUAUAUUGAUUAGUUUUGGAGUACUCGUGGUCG
- testContext: 30 °C
Hi, to clarify the labels: yes (1) covers self-splicing fitness (ln) from -2 upward, no (0) covers anything below -2.

Some solved cases for reference:
Form field: self-splicing fitness (ln) at least -2? Entry: CUGAAGCAAUAUUACGGCCC
yes (1)

Form field: self-splicing fitness (ln) at least -2? Entry: UGAAAGCAAUAUUACGCGCU
yes (1)

Form field: self-splicing fitness (ln) at least -2? Entry: GGGGAGCAAUAUUACGUGAU
no (0)

Others:
Form field: self-splicing fitness (ln) at least -2? Entry: AGCUAGCAAUAUUACGGAAU
yes (1)

Form field: self-splicing fitness (ln) at least -2? Entry: UUGCAGCAAUAUUACGCAGG
no (0)

Form field: self-splicing fitness (ln) at least -2? Entry: AGUAAGCAAUAUUACGACAA
yes (1)

Form field: self-splicing fitness (ln) at least -2? Entry: CCCGAGCAAUAUUACGCGCA
no (0)

Form field: self-splicing fitness (ln) at least -2? Entry: GCAGAGCAAUAUUACGCGGA
no (0)

###

Reported self-splicing fitness (ln) values for a set of sequences
- experimentSummary: self-splicing fitness, log relative to wild type (ln ratio); higher = more splicing; Tetrahymena group I intron in knt gene, E. coli kanamycin selection, DiMSum; sequences stand for … in CUCUCU…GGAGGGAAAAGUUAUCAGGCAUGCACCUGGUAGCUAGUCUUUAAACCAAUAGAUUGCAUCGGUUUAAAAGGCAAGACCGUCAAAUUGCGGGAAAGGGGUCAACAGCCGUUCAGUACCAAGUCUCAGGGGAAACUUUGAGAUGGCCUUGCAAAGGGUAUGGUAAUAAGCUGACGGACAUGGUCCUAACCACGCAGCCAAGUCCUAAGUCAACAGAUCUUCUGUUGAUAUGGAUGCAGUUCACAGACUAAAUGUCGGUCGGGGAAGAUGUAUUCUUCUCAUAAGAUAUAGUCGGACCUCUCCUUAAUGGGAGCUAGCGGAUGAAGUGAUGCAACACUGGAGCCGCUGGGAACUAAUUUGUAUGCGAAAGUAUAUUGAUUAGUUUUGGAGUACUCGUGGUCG
- testContext: 30 °C
I'd appreciate a reply containing only the number, no unit.

Entry UUUCAGCAAUAUUACGGCGA has what self-splicing fitness (ln)?
-0.344

Entry AGCGAGCAAUAUUACGCGUA has what self-splicing fitness (ln)?
-2.95

Entry UCCGAGCAAUAUUACGUAGA has what self-splicing fitness (ln)?
-2.09

Others:
Entry UUUCAGCAAUAUUACGUCUU has what self-splicing fitness (ln)?
-2.52

Entry CAGGAGCAAUAUUACGUACC has what self-splicing fitness (ln)?
-2.36

Entry AUACAGCAAUAUUACGUAAA has what self-splicing fitness (ln)?
-1.87

Entry CUUAAGCAAUAUUACGCGGC has what self-splicing fitness (ln)?
-2.93

Entry AACUAGCAAUAUUACGAGUC has what self-splicing fitness (ln)?
-3.83

Entry UAAAAGCAAUAUUACGAAGG has what self-splicing fitness (ln)?
-2.61

Entry UUGAAGCAAUAUUACGCCUA has what self-splicing fitness (ln)?
0.0255

Entry CAUAAGCAAUAUUACGCAGA has what self-splicing fitness (ln)?
-2.5

Entry CGGGAGCAAUAUUACGUUCG has what self-splicing fitness (ln)?
-3.74

Entry CUUCAGCAAUAUUACGUAGA has what self-splicing fitness (ln)?
-3.3

Entry CGUGAGCAAUAUUACGCUCG has what self-splicing fitness (ln)?
-2.69

Entry UUACAGCAAUAUUACGUUCG has what self-splicing fitness (ln)?
-0.549

Entry CGCAAGCAAUAUUACGGAGG has what self-splicing fitness (ln)?
-1.02

Entry UUAUAGCAAUAUUACGGGAG has what self-splicing fitness (ln)?
-2.25

Entry UCCUAGCAAUAUUACGGACA has what self-splicing fitness (ln)?
-2.68

Entry UUCCAGCAAUAUUACGCAUU has what self-splicing fitness (ln)?
-3.09

Entry CGUCAGCAAUAUUACGUGAU has what self-splicing fitness (ln)?
-2.04

Entry UCAUAGCAAUAUUACGAUCU has what self-splicing fitness (ln)?
-3.02

Entry AGUGAGCAAUAUUACGACGC has what self-splicing fitness (ln)?
-1.01

Entry GAGCAGCAAUAUUACGUUUU has what self-splicing fitness (ln)?
-2.63

Entry CCAUAGCAAUAUUACGGGUA has what self-splicing fitness (ln)?
-3.25

Entry GGAGAGCAAUAUUACGCCUA has what self-splicing fitness (ln)?
-2.28

Entry UUCCAGCAAUAUUACGCUUU has what self-splicing fitness (ln)?
-3.23

Entry CUUGAGCAAUAUUACGGAAC has what self-splicing fitness (ln)?
-2.25

Entry GUAGAGCAAUAUUACGUAAC has what self-splicing fitness (ln)?
-0.96
